The reported numbers originate from ChEMBL document CHEMBL1909046.

TESTED SYSTEM: Glycine receptor (Rattus norvegicus, UniProt P22771+P24524+P07727+P20781); note: in other assays of this panel Not Active means under 50% inhibition at 10 µM
Type: cell membranes, Wistar, Spinal cord, Membrane
Where a SMILES comes first, the peptide text is derived from it. Bridges are numbered along the chain shown (N, C = ends). [ ]: non-standard residue; d: D form. The star is where a group is joined. Threoninol(2S,3R) = C[C@@H](O)[C@H](CO)N*
MEASURED QUANTITY: IC50

COMPOUND	TEST VALUE
CC1=C(CC(=O)O)c2cc(F)ccc2/C1=C\c1ccc([S+](C)[O-])cc1 (configuration not stated)	Not Active
COCCCOc1ccnc(C[S+]([O-])c2nc3ccccc3[nH]2)c1C (configuration not stated)	Not Active
CN1C(=O)COc2c(C(=O)NC3CN4CCC3CC4)cc(Cl)cc21 (configuration not stated)	Not Active
[H]/N=C(/N)N[C@H]1[C@H](O)[C@@H](O)[C@H](O[C@@H]2O[C@@H](C)[C@](O)(C=O)[C@H]2O[C@@H]2O[C@@H](CO)[C@H](O)[C@@H](O)[C@@H]2NC)[C@@H](N/C(N)=N\[H])[C@@H]1O	Not Active

Endpoint output: IC50 of COC(=O)C1=C(C)NC(C)=C(C(=O)OCC(C)C)C1c1ccccc1[N+](=O)[O-] (configuration not stated) . Value? Not Active

Endpoint output: IC50 of Cc1cc(C)nc(NS(=O)(=O)c2ccc(N)cc2)n1 . Value? Not Active

Endpoint output: IC50 of S=C=Nc1cccc2ccccc12 [1-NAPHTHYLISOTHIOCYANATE] . Value? Not Active

Endpoint output: IC50 of Cc1cc(=O)n(-c2ccccc2)n1C [ANTIPYRINE] . Value? Not Active

Endpoint output: IC50 of CN1C(C(=O)Nc2ccccn2)=C(O)c2sccc2S1(=O)=O . Value? Not Active

Endpoint output: IC50 of CN1CCC(=C2c3ccccc3C=Cc3ccccc32)CC1 . Value? Not Active

Endpoint output: IC50 of COc1ccc2c(c1)[C@]13CCCC[C@@H]1[C@H](C2)N(C)CC3 . Value? Not Active

Endpoint output: IC50 of Nc1c(CC(=O)O)cccc1C(=O)c1ccc(Br)cc1 . Value? Not Active

Endpoint output: IC50 of CCOC(=O)[C@H](CCc1ccccc1)N[C@H]1CCc2ccccc2N(CC(=O)O)C1=O . Value? Not Active

Endpoint output: IC50 of N=C(N)NC(=O)c1nc(Cl)c(N)nc1N [AMILORIDE] . Value? Not Active

Endpoint output: IC50 of CCCCOc1ccc(OCCCN2CCOCC2)cc1 . Value? Not Active

Endpoint output: IC50 of C/C=C/C[C@@H](C)[C@@H](O)[C@H]1C(=O)N[C@@H](CC)C(=O)N(C)CC(=O)N(C)[C@@H](CC(C)C)C(=O)N[C@@H](C(C)C)C(=O)N(C)[C@@H](CC(C)C)C(=O)N[C@@H](C)C(=O)N[C@H](C)C(=O)N(C)[C@@H](CC(C)C)C(=O)N(C)[C@@H](CC(C)C)C(=O)N(C)[C@@H](C(C)C)C(=O)N1C . Value? Not Active

Endpoint output: IC50 of C[C@@H](O)[C@H](CO)NC(=O)[C@@H]1CSSC[C@H](NC(=O)[C@H](N)Cc2ccccc2)C(=O)N[C@@H](Cc2ccccc2)C(=O)N[C@H](Cc2c[nH]c3ccccc23)C(=O)N[C@@H](CCCCN)C(=O)N[C@@H]([C@@H](C)O)C(=O)N1 (H-[dF]CF[dW]KTC-{Threoninol(2S,3R)}; disulfide 2-7) . Value? Not Active

Endpoint output: IC50 of CC(C)C[C@H](NC(=O)[C@@H](O)[C@H](N)Cc1ccccc1)C(=O)O . Value? Not Active

Endpoint output: IC50 of CN(C)/N=N/c1[nH]cnc1C(N)=O . Value? Not Active

Endpoint output: IC50 of CC[C@@H](CO)NCCN[C@@H](CC)CO . Value? Not Active

Endpoint output: IC50 of CN(C)c1ccc(C(=C2C=CC(=[N+](C)C)C=C2)c2ccc(N(C)C)cc2)cc1.[Cl-] . Value? Not Active

Endpoint output: IC50 of N[C@H](CSC(=S)NCc1ccccc1)C(=O)O . Value? Not Active

Endpoint output: IC50 of COc1cccc2c1C(=O)c1c(O)c3c(c(O)c1C2=O)C[C@@](O)(C(=O)CO)C[C@@H]3O[C@H]1C[C@H](N)[C@H](O)[C@H](C)O1 . Value? Not Active
